Reference source for all entries: patent US6750228B1

# Measurement Target: MMP-2 (Homo sapiens)
# Construct: made in house; provided by Dr. Gregory Goldberg, Washington University
# Sequence (P08253 110-660): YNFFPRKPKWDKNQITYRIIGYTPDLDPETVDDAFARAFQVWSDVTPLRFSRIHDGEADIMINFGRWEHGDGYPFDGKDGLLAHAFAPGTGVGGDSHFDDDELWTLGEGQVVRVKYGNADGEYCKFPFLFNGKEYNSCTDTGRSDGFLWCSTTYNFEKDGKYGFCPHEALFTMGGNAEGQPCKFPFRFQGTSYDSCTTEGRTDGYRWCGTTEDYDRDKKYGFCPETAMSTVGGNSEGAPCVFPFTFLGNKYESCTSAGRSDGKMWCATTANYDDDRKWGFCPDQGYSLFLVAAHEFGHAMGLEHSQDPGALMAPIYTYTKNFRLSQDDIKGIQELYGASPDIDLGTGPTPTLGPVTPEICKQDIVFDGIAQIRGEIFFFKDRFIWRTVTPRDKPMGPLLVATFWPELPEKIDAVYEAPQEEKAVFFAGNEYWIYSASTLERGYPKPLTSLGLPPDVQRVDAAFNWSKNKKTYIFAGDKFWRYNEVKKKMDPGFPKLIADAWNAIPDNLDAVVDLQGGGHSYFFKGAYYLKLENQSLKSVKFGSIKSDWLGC
# Protocol Summary: biochemical
# Run Parameters: recombinant human MMP-2, MCA peptide substrate 4 μM, pH 7.5, room temperature; read-out: MMP-2 IC50
# IC50 values compiled below
Measured Endpoint: IC50 (nM)

{"columns": ["Compound Structure String", "Display Unit", "Value"],
 "data": [
  ["O=C(NO)C1(S(=O)(=O)c2ccc(N3CCN(S(=O)(=O)c4cccc5nsnc45)CC3)cc2)CCOCC1", "nM", 130],
  ["O=C(c1ccco1)N1CCN(c2ccc(S(=O)(=O)C3(C(=O)NO)CCOCC3)cc2)CC1", "nM", 55],
  ["CS(=O)(=O)c1ccccc1S(=O)(=O)N1CC(Oc2ccc(S(=O)(=O)C3(C(=O)NO)CCOCC3)cc2)C1", "nM", 2000],
  ["O=C(Nc1ccccc1Cl)N1CCC(C(=O)NO)(S(=O)(=O)c2ccc(Oc3ccc(OC(F)(F)F)cc3)cc2)CC1", "nM", 0.1],
  ["CN(C)S(=O)(=O)N(C)C1CCN(c2ccc(S(=O)(=O)C3(C(=O)NO)CCOCC3)cc2)CC1", "nM", 2000]
]}
